Method Notes: chemical genetic growth profiling, strain panel (AID 1159580);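 further: tested at 20 µM; growth read once vehicle control cultures reached saturation at 30 °C; 1 = growth at the plate median or of vehicle wells; lower values mean less growth of the strain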
Condition Info: S. cerevisiae deletion strains, growth OD, locus YBR229C, strain ROT2, hits give low values
Out of some 5,500 compounds screened, about 2,000 (36%) were called active. Not shown: some 18% with an inconclusive outcome. Some of the results follow.
Overview of reported normalized growth across a group of compounds:

[
  {
    "Compound": "C=C1CCC(C2CC(=O)OC2=O)C(=O)CCC2C1CC2(C)C (stereo unspecified)",
    "normalized growth": 1.01
  },
  {
    "Compound": "OCc1ccccc1O",
    "normalized growth": 1.02
  },
  {
    "Compound": "CC(C)(C)CC(C)(C)c1ccc(O)c(Cc2ccc(Cl)cc2Cl)c1",
    "normalized growth": 1.01
  },
  {
    "Compound": "NC[C@@H]1CC[C@@H](N)[C@@H](O[C@H]2[C@H](O)[C@@H](O[C@H]3O[C@H](CO)[C@@H](O)[C@H](N)[C@H]3O)[C@H](N)C[C@@H]2N)O1",
    "normalized growth": 0.959
  },
  {
    "Compound": "C[C@@H]1C(=O)OC2[C@H](O)C34[C@@H]5OC(=O)[C@@]3(O[C@@H]3OC(=O)[C@H](O)[C@@]34[C@H](C(C)(C)C)[C@H]5O)[C@]21O (stereo partly specified)",
    "normalized growth": 1
  },
  {
    "Compound": "CC(C)C(C)/C=C/C(C)[C@H]1CCC2C3=CCC4CC(=O)CC[C@]4(C)C3CC[C@@]21C (stereo partly specified)",
    "normalized growth": 1.02
  }
]

----------
Method Notes: chemical genetic growth profiling, strain panel (AID 1159580);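 further: tested at 20 µM; growth read once vehicle control cultures reached saturation at 30 °C; 1 = growth at the plate median or of vehicle wells; lower values mean less growth of the strain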
Condition Info: S. cerevisiae deletion strains, growth OD, locus YNL248C, strain rpa49
Out of some 5,500 compounds screened, about 2,000 (36%) were called active. Inconclusive results (about 18%) are left out. No stated cut-off is given here; in the data, active means normalized growth mostly below about 0.91 (no sharp cut-off); inconclusive means no clear call, values can overlap the other calls; inactive means mostly above about 0.92. The list shows a part of the results.
Classes used: active, inactive

[
  {
    "Molecule": "Cc1cc(-c2ccccc2)nnc1NCCN1CCOCC1",
    "Assigned Class": "inactive"
  },
  {
    "Molecule": "Cn1c(=O)c2[nH]cnc2n(C)c1=O",
    "Assigned Class": "inactive"
  },
  {
    "Molecule": "CC[N+](CC)(CC)CCOc1cccc(OCC[N+](CC)(CC)CC)c1OCC[N+](CC)(CC)CC",
    "Assigned Class": "inactive"
  },
  {
    "Molecule": "Cc1c(S(=O)(=O)O)oc2c1C(=O)C(=O)c1c-2ccc2c1CCCC2(C)C",
    "Assigned Class": "inactive"
  },
  {
    "Molecule": "C=C1C(=O)OC2CC1C(OC(C)=O)C/C(C)=C/CC/C(C)=C/CC[C@]2(C)O (stereo partly drawn)",
    "Assigned Class": "inactive"
  },
  {
    "Molecule": "O=C(C1CCCCC1)N1CC(=O)N2CCc3ccccc3C2C1 (stereo not drawn)",
    "Assigned Class": "inactive"
  },
  {
    "Molecule": "Cc1coc2c1C(=O)C(=O)c1c-2ccc2c1CCCC2(C)C",
    "Assigned Class": "inactive"
  },
  {
    "Molecule": "CC(C)NNC(=O)c1ccncc1",
    "Assigned Class": "inactive"
  },
  {
    "Molecule": "CC(C)(C)CC(C)(C)c1ccc(O)c(Cc2ccc(Cl)cc2Cl)c1",
    "Assigned Class": "inactive"
  },
  {
    "Molecule": "CCCC(=O)O[C@]1(C(=O)CO)CCC2[C@@H]3CCC4=CC(=O)CC[C@]4(C)C3[C@@H](O)C[C@@]21C (stereo partly drawn)",
    "Assigned Class": "inactive"
  },
  {
    "Molecule": "COC(=O)C1=CCCN(C)C1",
    "Assigned Class": "inactive"
  },
  {
    "Molecule": "COc1cc(OC)c2c(=O)c(-c3ccccc3)coc2c1",
    "Assigned Class": "inactive"
  },
  {
    "Molecule": "O=C(O)CN(CC(=O)O)Cc1cc2c(-c3ccccc3C(=O)O)c3cc(CN(CC(=O)O)CC(=O)O)c(=O)cc-3oc2cc1O",
    "Assigned Class": "inactive"
  },
  {
    "Molecule": "CC1C[C@H]2CC(=O)[C@H]3CCCN4CCC[C@H]2[C@]34C1 (stereo partly drawn)",
    "Assigned Class": "inactive"
  },
  {
    "Molecule": "CC1=CC2C(CC1=O)C(C)=CCC2C(C)C (stereo not drawn)",
    "Assigned Class": "inactive"
  },
  {
    "Molecule": "COc1cc2c(cc1OC)C1Cc3ccc(OC)c(OC)c3CN1CC2 (stereo not drawn)",
    "Assigned Class": "inactive"
  },
  {
    "Molecule": "C#CCCCCCCCCCCCC(O)CC(O)CO (stereo not drawn)",
    "Assigned Class": "inactive"
  },
  {
    "Molecule": "O=C1OC2(c3ccc(O)cc3Oc3cc(O)ccc32)c2ccccc21",
    "Assigned Class": "inactive"
  },
  {
    "Molecule": "CC(=O)OCC[C@H](C)CCC=C(C)C",
    "Assigned Class": "inactive"
  },
  {
    "Molecule": "CCCCN1CCCCC1C(=O)Nc1c(C)cccc1C (stereo not drawn)",
    "Assigned Class": "inactive"
  },
  {
    "Molecule": "COc1c(OC)c2occc2c2oc(=O)ccc12",
    "Assigned Class": "inactive"
  },
  {
    "Molecule": "C=CCSCC1Nc2cc(Cl)c(S(N)(=O)=O)cc2S(=O)(=O)N1 (stereo not drawn)",
    "Assigned Class": "inactive"
  },
  {
    "Molecule": "CO/N=C(\\C(=O)N[C@@H]1C(=O)N2C(C(=O)O)=C(CSc3nc(=O)c(O)nn3C)CS[C@H]12)c1csc(N)n1",
    "Assigned Class": "inactive"
  },
  {
    "Molecule": "NC(CO)C(=O)NNCc1ccc(O)c(O)c1O (stereo not drawn)",
    "Assigned Class": "inactive"
  },
  {
    "Molecule": "COc1cc(-c2coc3cc(OC)c(OC)c(OC)c3c2=O)cc(OC)c1OC",
    "Assigned Class": "inactive"
  },
  {
    "Molecule": "C#CCCCCCCCCCCCC(=O)CC(O)COC(C)=O (stereo not drawn)",
    "Assigned Class": "inactive"
  },
  {
    "Molecule": "O=C(Cn1ccnc1[N+](=O)[O-])NCCO",
    "Assigned Class": "inactive"
  },
  {
    "Molecule": "C=C1C(=O)O[C@@H]2C[C@@]3(C)CCC[C@H](C)C3=C[C@H]12",
    "Assigned Class": "active"
  },
  {
    "Molecule": "O=C1[C@H](CCC(O)c2ccc(F)cc2)[C@@H](c2ccc(O)cc2)N1c1ccc(F)cc1 (stereo partly drawn)",
    "Assigned Class": "inactive"
  },
  {
    "Molecule": "Nc1ccn(C2O[C@H](CO)[C@@H](O)[C@@H]2O)c(=O)n1 (stereo partly drawn)",
    "Assigned Class": "inactive"
  },
  {
    "Molecule": "COC(=O)[C@@H]1OC(=O)[C@H]2O[C@@]23[C@@]1(C)CCC1[C@@]2(C)CCC(=O)C(C)(C)C2C[C@@H](OC(C)=O)[C@]13C (stereo partly drawn)",
    "Assigned Class": "inactive"
  },
  {
    "Molecule": "CC(C)NCC(O)COc1cccc2ccccc12 (stereo not drawn)",
    "Assigned Class": "inactive"
  },
  {
    "Molecule": "O=C(O)c1ccccc1-c1c2cc(Br)c(=O)cc-2oc2[c]([Hg])c(O)c(Br)cc12",
    "Assigned Class": "inactive"
  },
  {
    "Molecule": "CCC(C)(C)C(=O)O[C@H]1C[C@@H](C)C=C2C=C[C@H](C)[C@H](CC[C@@H]3C[C@@H](O)CC(=O)O3)[C@H]21",
    "Assigned Class": "inactive"
  },
  {
    "Molecule": "OC(Cn1cncn1)(Cn1cncn1)c1ccc(F)cc1F",
    "Assigned Class": "inactive"
  },
  {
    "Molecule": "CC(C)NC[C@H](O)COc1cccc2ccccc12",
    "Assigned Class": "inactive"
  },
  {
    "Molecule": "C[C@H]1COC2=C1C(=O)C(=O)c1c2ccc2c1CCCC2(C)C",
    "Assigned Class": "active"
  },
  {
    "Molecule": "COc1ccc(-c2coc3cc(OC)cc(OC)c3c2=O)cc1",
    "Assigned Class": "inactive"
  }
]
